molecular target: Melanocortin receptor 4 (Mus musculus, UniProt P56450); assay: Competition binding affinity at mice melanocortin 4 receptor using [125I][NDP]-R-MSH as radioligand in a membrane filtration assay
Sequence (P56450 whole entry): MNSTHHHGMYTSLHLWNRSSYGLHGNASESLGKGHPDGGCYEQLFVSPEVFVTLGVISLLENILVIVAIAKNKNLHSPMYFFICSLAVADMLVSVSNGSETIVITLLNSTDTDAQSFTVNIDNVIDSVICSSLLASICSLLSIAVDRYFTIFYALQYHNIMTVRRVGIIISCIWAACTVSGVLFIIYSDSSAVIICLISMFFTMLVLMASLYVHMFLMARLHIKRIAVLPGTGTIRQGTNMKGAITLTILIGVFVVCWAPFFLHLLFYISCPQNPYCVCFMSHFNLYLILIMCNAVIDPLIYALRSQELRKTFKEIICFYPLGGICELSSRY
Would you mind telling me the reported log10 Ki of each entry?
Note the log scale: values are log10 of Ki expressed in nM.

Supply recorded log10 Ki for "Fc1cccc(F)c1CSc1ccccc1C1=NCCCN1" here. 4.20

Please report log10 Ki for the following compound: "Clc1cc(CSc2ccccc2C2=NCCCN2)c(Cl)s1" 3.34

Provide one value: measured log10 Ki of "COc1ccc(Br)cc1CCc1c(F)cccc1C1=NCCN1" 2.20

Quick one: give measured log10 Ki for "COc1ccc(Br)cc1CCc1ccccc1C1=NCCN1" 1.59

Determine from records and report log10 Ki for "COc1ccc(Br)cc1CSc1ccccc1C1=NCCCN1" 1.83

Please supply the value of reported log10 Ki for the item "COc1ccc(Br)cc1CCc1ccccc1C1=NCCCN1" 2.34

Report measured log10 Ki; entry is "Fc1cccc(Cl)c1CSc1ccccc1C1=NCCCN1" 3.43
